Entries and their Maximum potential (ΔΨ in - mV)
# Test system: rat liver mitochondria (RLM)
# assay overview: Mitochondrial transmembrane electric potential (ΔΨ) of RLM, safranine fluorescence
# Format: biochemical
# particulars: glutamate/malate; 10 μM
observed property: Maximum potential (ΔΨ in - mV)

molecule: CS(=O)(=O)[O-].O=C(/C=C/c1ccc(O)c(O)c1)NCCCCCCCCCC[P+](c1ccccc1)(c1ccccc1)c1ccccc1 [AntiOxCIN6]
readout units: mV
assay value: 200.5
//
molecule: CS(=O)(=O)[O-].O=C(/C=C/c1cc(O)c(O)c(O)c1)NCCCCCCCC[P+](c1ccccc1)(c1ccccc1)c1ccccc1 [AntiOxCIN5]
readout units: mV
assay value: 215.1
//
molecule: CS(=O)(=O)[O-].O=C(/C=C/c1ccc(O)c(O)c1)NCCCCCCCC[P+](c1ccccc1)(c1ccccc1)c1ccccc1 [AntiOxCIN3]
readout units: mV
assay value: 238.0
